experiment: Inhibition of NS5A in HCV genotype 2a JFH1 infected in human HuH7 replicon cells assessed as reduction in viral replication after 3 days by luciferase reporter gene assay
MEASUREMENT_LABEL: EC50 (pM)

CHEM_SMILES	ASSAY_VALUE
COC(=O)N[C@H](C(=O)N1CCC[C@H]1c1ncc(-c2ccc3c(c2)COc2cc4c(ccc5nc([C@@H]6CCCN6C(=O)[C@H](NC(=O)OC)c6ccccc6)[nH]c54)cc2-3)[nH]1)C(C)C	4
COC[C@H]1C[C@@H](c2ncc(-c3ccc4c(c3)COc3cc5c(ccc6nc([C@@H]7C[C@H](C)CN7C(=O)[C@@H](NC(=O)OC)C(C)C)[nH]c65)cc3-4)[nH]2)N(C(=O)[C@H](NC(=O)OC)c2ccccc2)C1	6
COC[C@H]1C[C@@H](c2ncc(-c3ccc4c(c3)COc3cc5c(ccc6nc([C@@H]7C[C@@H]8C[C@H]8N7C(=O)[C@@H](NC(=O)OC)C(C)C)[nH]c65)cc3-4)[nH]2)N(C(=O)[C@H](NC(=O)OC)c2ccccc2)C1	7
